Parameter: pIC50. Scope: all listed entries.
TARGET_OR_TEST_SYSTEM: Integrin alpha-IIb/beta-3 (Homo sapiens, UniProt P05106+P08514)
Sequence (P05106 27-788 limits assumed): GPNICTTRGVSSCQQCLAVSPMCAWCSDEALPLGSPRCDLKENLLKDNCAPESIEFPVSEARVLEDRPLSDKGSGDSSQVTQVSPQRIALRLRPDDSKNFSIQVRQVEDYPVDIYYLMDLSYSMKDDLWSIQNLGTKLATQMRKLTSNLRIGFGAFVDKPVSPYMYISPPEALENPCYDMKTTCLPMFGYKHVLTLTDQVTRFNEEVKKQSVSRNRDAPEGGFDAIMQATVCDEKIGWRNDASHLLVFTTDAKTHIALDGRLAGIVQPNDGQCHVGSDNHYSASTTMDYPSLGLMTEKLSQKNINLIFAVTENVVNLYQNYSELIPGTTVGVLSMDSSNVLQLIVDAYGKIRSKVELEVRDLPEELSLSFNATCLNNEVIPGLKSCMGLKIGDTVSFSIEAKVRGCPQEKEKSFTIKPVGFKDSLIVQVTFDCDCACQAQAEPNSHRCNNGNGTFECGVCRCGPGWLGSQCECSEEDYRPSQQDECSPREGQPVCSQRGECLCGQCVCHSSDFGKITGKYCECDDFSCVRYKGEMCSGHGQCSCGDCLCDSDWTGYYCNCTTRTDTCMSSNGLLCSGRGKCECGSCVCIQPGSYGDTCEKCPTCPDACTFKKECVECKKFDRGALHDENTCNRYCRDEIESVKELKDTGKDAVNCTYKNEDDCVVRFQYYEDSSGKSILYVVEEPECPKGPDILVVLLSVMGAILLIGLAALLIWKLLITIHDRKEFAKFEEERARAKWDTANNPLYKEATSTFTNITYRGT
Sequence (P08514 32-887 limits assumed): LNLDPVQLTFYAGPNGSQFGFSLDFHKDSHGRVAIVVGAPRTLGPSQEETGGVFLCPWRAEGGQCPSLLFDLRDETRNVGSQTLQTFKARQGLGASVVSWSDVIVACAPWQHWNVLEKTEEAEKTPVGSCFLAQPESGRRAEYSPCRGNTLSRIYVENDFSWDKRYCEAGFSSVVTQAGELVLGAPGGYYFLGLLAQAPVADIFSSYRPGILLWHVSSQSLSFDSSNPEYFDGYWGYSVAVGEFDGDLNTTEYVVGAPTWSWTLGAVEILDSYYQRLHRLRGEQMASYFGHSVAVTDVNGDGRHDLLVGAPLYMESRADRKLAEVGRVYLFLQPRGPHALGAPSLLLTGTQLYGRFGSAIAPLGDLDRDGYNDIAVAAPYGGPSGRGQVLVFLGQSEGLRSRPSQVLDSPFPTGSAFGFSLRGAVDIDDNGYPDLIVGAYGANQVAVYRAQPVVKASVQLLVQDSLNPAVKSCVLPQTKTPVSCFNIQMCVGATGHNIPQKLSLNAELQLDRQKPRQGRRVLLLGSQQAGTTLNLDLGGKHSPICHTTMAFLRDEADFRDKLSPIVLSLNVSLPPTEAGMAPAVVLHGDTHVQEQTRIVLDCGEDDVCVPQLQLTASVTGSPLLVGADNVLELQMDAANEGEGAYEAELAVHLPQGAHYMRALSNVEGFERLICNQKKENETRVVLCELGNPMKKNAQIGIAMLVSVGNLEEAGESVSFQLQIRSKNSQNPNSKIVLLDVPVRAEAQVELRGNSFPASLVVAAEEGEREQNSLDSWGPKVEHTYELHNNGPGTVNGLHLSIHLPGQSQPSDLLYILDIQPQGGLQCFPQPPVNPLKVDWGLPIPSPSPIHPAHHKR
Sequence (P08514 891-1039 limits assumed): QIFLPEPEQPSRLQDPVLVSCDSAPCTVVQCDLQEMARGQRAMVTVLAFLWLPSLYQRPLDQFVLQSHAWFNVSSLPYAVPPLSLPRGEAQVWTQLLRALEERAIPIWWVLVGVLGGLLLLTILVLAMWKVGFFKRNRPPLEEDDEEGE
METHOD_SUMMARY: The compound was tested for the inhibition of fibrinogen receptor
Assay type: protein-complex assay
Where a SMILES comes first, the peptide text is derived from it. Bridges are numbered along the chain shown (N, C = ends).
Please treat pIC50 as minus the base-10 logarithm of the molar concentration.

The cases that follow already have their pIC50 on record.
- COMPOUND: "N=C(N)NCCC[C@@H]1NC(=O)[C@H](CC(=O)O)NC(=O)CSC[C@@H](C(=O)O)NC(=O)[C@H](CC(=O)O)NC(=O)CNC1=O"
  pIC50: 7.60
- COMPOUND: "N=C(N)NCCC[C@@H]1NC(=O)CSC[C@@H](C(=O)O)NC(=O)[C@H](CC(=O)O)NC(=O)CNC1=O ({CH2CO}-RGDC-OH; thioether N-4)"
  pIC50: 6.88
- COMPOUND: "NCC(=O)N[C@@H](CCCN=C(N)N)C(=O)NCC(=O)N[C@@H](CC(=O)O)C(=O)N[C@@H](CC(=O)O)C(=O)O (H-GRGDD-OH)"
  pIC50: 6.64
- COMPOUND: "N=C(N)NCCC[C@@H]1NC(=O)[C@H](Cc2ccc(O)cc2)NC(=O)C[S+]([O-])C[C@@H](C(=O)O)NC(=O)[C@H](CC(=O)O)NC(=O)CNC1=O (stereo in doubt; 70B)"
  pIC50: 8.32
- COMPOUND: "N=C(N)NCCC[C@@H]1NC(=O)[C@@H](Cc2c[nH]c3ccccc23)NC(=O)CSC[C@@H](C(=O)O)NC(=O)[C@H](CC(=O)O)NC(=O)CNC1=O"
  pIC50: 7.54

Shifting focus to the compound that follows.
Assay Integrin alpha-IIb/beta-3 (Homo sapiens, UniProt P05106+P08514), sample CC(C)C[C@@H]1NC(=O)CSC[C@@H](C(=O)O)NC(=O)[C@H](CC(=O)O)NC(=O)CNC(=O)[C@H](CCCNC(=N)N)NC1=O , pIC50 read: 8.52

###

TARGET_OR_TEST_SYSTEM: Integrin alpha-IIb/beta-3 (Homo sapiens, UniProt P05106+P08514)
METHOD_SUMMARY: Inhibition of Fibrinogen binding to Fibrinogen receptor
Format: protein-complex assay
*1 amine or outer side, *2 acyl side, *3 side chain or, on linkers, in order; H or OH if unused. Where a SMILES comes first, the peptide text is derived from it. Bridges are numbered along the chain shown (N, C = ends). [ ]: non-standard residue; d: D form. Cys(O)(CH2CO) = O=C([C@H](C[S+]([O-])CC(=O)[*:3])N[*:1])[*:2]
MEASURED_PARAMETER: pIC50
Please treat pIC50 as minus the base-10 logarithm of the molar concentration.

The cases that follow already have their pIC50 on record.
- COMPOUND: "N=C(N)NCCC[C@@H]1NC(=O)[C@H](Cc2ccccc2)NC(=O)C[S+]([O-])C[C@@H](C(=O)O)NC(=O)[C@H](CC(=O)O)NC(=O)CNC1=O (stereo partly specified)"
  TARGET_OR_TEST_SYSTEM: "Integrin alpha-IIb/beta-3 (Homo sapiens, UniProt P05106+P08514)"
  pIC50: 7.80
- COMPOUND: "CC(C)C[C@@H]1NC(=O)C[S+]([O-])C[C@@H](C(=O)O)NC(=O)[C@H](CC(=O)O)NC(=O)CNC(=O)[C@H](CCCN=C(N)N)NC1=O (stereo partly specified) (LRGD[Cys(O)(CH2CO)]-OH; lactam N-5)"
  TARGET_OR_TEST_SYSTEM: "Integrin alpha-IIb/beta-3 (Homo sapiens, UniProt P05106+P08514)"
  pIC50: 7.60
- COMPOUND: "N=C(N)NCCC[C@@H]1NC(=O)[C@H](CCCCN)NC(=O)C[S+]([O-])C[C@@H](C(=O)O)NC(=O)[C@H](CC(=O)O)NC(=O)CNC1=O (stereo partly specified) (KRGD[Cys(O)(CH2CO)]-OH; lactam N-5)"
  TARGET_OR_TEST_SYSTEM: "Integrin alpha-IIb/beta-3 (Homo sapiens, UniProt P05106+P08514)"
  pIC50: 7.85
- COMPOUND: "N=C(N)NCCC[C@@H]1NC(=O)[C@H](CO)NC(=O)C[S+]([O-])C[C@@H](C(=O)O)NC(=O)[C@H](CC(=O)O)NC(=O)CNC1=O (stereo partly specified) (SRGD[Cys(O)(CH2CO)]-OH; lactam N-5)"
  TARGET_OR_TEST_SYSTEM: "Integrin alpha-IIb/beta-3 (Homo sapiens, UniProt P05106+P08514)"
  pIC50: 7.30
- COMPOUND: "N=C(N)NCCC[C@@H]1NC(=O)[C@@H](Cc2ccccc2)NC(=O)C[S+]([O-])C[C@@H](C(=O)O)NC(=O)[C@H](CC(=O)O)NC(=O)CNC1=O (stereo partly specified)"
  TARGET_OR_TEST_SYSTEM: "Integrin alpha-IIb/beta-3 (Homo sapiens, UniProt P05106+P08514)"
  pIC50: 7.48

Assay Integrin alpha-IIb/beta-3 (Homo sapiens, UniProt P05106+P08514), sample CC(C)[C@@H]1NC(=O)C[S+]([O-])C[C@@H](C(=O)O)NC(=O)[C@H](CC(=O)O)NC(=O)CNC(=O)[C@H](CCCNC(=N)N)NC1=O (stereo partly specified) (VRGD[Cys(O)(CH2CO)]-OH; lactam N-5) , pIC50 read: 8.35

// data source = ChEMBL document CHEMBL1126061
